- TARGET_OR_TEST_SYSTEM: Androgen Receptor (Homo sapiens)
- Construct: endogenous in cells; host or cells: VCaP cells
- Sequence (P10275 whole entry): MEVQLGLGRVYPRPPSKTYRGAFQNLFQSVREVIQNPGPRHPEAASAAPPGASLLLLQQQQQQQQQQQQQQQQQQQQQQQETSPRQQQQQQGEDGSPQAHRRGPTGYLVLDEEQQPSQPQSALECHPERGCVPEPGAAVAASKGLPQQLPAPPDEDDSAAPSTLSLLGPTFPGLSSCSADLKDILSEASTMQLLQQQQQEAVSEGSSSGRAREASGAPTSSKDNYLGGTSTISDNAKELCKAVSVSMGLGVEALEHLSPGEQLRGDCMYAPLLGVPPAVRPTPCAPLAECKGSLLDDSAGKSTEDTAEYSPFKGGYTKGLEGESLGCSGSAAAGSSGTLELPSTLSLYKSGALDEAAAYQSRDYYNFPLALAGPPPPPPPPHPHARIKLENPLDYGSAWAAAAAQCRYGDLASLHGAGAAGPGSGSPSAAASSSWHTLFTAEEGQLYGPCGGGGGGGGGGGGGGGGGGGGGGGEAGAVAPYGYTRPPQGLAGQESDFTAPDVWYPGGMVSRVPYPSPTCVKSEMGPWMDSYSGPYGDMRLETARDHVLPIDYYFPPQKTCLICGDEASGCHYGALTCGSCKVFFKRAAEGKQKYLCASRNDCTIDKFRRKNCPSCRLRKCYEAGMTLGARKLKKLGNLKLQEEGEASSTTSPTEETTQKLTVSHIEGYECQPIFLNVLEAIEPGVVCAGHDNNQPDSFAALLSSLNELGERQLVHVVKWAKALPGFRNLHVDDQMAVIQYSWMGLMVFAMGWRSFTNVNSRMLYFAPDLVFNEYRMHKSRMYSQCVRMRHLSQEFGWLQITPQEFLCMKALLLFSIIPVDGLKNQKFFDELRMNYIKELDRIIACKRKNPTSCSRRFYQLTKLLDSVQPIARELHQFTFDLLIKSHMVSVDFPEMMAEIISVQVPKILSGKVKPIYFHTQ
- PROTOCOL_TEXT: Androgen Receptor ELISA assay (PathScan AR ELISA) in VCaP cells: AR degradation, Dmax and DC50
- Format: cell-based
- CONDITION_SUMMARY: read-out: VCaP DC50; VCaP cells; Table 35
Would you mind telling me the reported DC50 of each entry?

### Prompt Entry "CN(C)c1ccc(CNC(=O)[C@@H]2C[C@@H](O)CN2C(=O)[C@@H](NC(=O)COCCCOCCCCCOc2ccc(N3C(=S)N(c4ccc(C#N)c(C(F)(F)F)c4)C(=O)C3(C)C)cc2)C(C)(C)C)cn1" has what DC50?
### Response > 501 nM

### Prompt Try the compound "Cc1ncsc1-c1ccc(CNC(=O)[C@@H]2C[C@@H](O)CN2C(=O)[C@@H](NC(=O)COCCCCOc2ccc(-c3ccc(N4C(=S)N(c5ccc(C#N)c(C(F)(F)F)c5)C(=O)C4(C)C)cc3)cc2)C(C)(C)C(=O)OC(C)(C)C)cc1"
### Response < 50 nM
